Tested on: 843782-103-R-J1-PDC complex spheroid viability;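 note: viability read after seven days of compound exposure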
EXPERIMENTAL DETAILS: Anticancer human tumor 843782-103-R-J1-PDC patient-derived lung adenocarcinoma cell line growth inhibition [RAS]
MEASUREMENT PARAMETERS: compound 10 µM; stronger effect = lower value
Listed next: entries and their corresponding viability, T/C.
ENDPOINT LABEL: viability, T/C

>  <COMPOUND>
NC1c2ccccc2OC12CCN(c1cnc3c(N4CCCc5ncccc54)n[nH]c3n1)CC2 (centres undefined)

>  <TARGET OR SYSTEM>
843782-103-R-J1-PDC complex spheroid viability;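 note: viability read after seven days of compound exposure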

>  <ENDPOINT LABEL>
viability, T/C

>  <ENDPOINT RESULT>
34.7% [middle of 4 runs]

$$$$
>  <COMPOUND>
CC(Nc1ccc2c(c1)OCCn1cc(N3C(=O)OCC3C(F)F)nc1-2)C(N)=O (centres undefined)

>  <TARGET OR SYSTEM>
843782-103-R-J1-PDC complex spheroid viability;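 note: viability read after seven days of compound exposure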

>  <ENDPOINT LABEL>
viability, T/C

>  <ENDPOINT RESULT>
16.3% [middle of 4 runs]

$$$$
>  <COMPOUND>
CC(C)NCC(C(=O)N1CCN(c2ncnc3c2C(C)CC3O)CC1)c1ccc(Cl)cc1 (centres undefined)

>  <TARGET OR SYSTEM>
843782-103-R-J1-PDC complex spheroid viability;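 note: viability read after seven days of compound exposure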

>  <ENDPOINT LABEL>
viability, T/C

>  <ENDPOINT RESULT>
13.7% [middle of 4 runs]

$$$$
>  <COMPOUND>
C[C@@H](NC(=O)c1ncnc(N)c1Cl)c1ncc(C(=O)Nc2cc(C(F)(F)F)c(Cl)cn2)s1

>  <TARGET OR SYSTEM>
843782-103-R-J1-PDC complex spheroid viability;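 note: viability read after seven days of compound exposure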

>  <ENDPOINT LABEL>
viability, T/C

>  <ENDPOINT RESULT>
103% [middle of 4 runs]

$$$$
>  <COMPOUND>
Cc1nc(N2CCC3(CC2)COC(C)C3N)c(CO)nc1Sc1ccnc(N)c1Cl (centres undefined)

>  <TARGET OR SYSTEM>
843782-103-R-J1-PDC complex spheroid viability;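 note: viability read after seven days of compound exposure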

>  <ENDPOINT LABEL>
viability, T/C

>  <ENDPOINT RESULT>
49% [middle of 4 runs]

$$$$
>  <COMPOUND>
CCC(CC)c1cc(NC2CCC(N)C2)n2nccc2n1 (centres undefined)

>  <TARGET OR SYSTEM>
843782-103-R-J1-PDC complex spheroid viability;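 note: viability read after seven days of compound exposure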

>  <ENDPOINT LABEL>
viability, T/C

>  <ENDPOINT RESULT>
0.82% [middle of 4 runs]

$$$$
>  <COMPOUND>
C#Cc1c(F)ccc2cc(O)cc(-c3ncc4c(N5CC6CCC(C5)N6)nc(OCC56CCCN5CC(F)C6)nc4c3F)c12 (centres undefined)

>  <TARGET OR SYSTEM>
843782-103-R-J1-PDC complex spheroid viability;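 note: viability read after seven days of compound exposure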

>  <ENDPOINT LABEL>
viability, T/C

>  <ENDPOINT RESULT>
59.7% [middle of 8 runs]

$$$$
>  <COMPOUND>
CC(=O)OC12COC1CC(O)C1(C)C(=O)C(O)C3=C(C)C(OC(=O)C(O)C(NC(=O)OC(C)(C)C)c4ccccc4)CC(O)(C(OC(=O)c4ccccc4)C21)C3(C)C (centres undefined)

>  <TARGET OR SYSTEM>
843782-103-R-J1-PDC complex spheroid viability;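 note: viability read after seven days of compound exposure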

>  <ENDPOINT LABEL>
viability, T/C

>  <ENDPOINT RESULT>
8.18% [middle of 4 runs]

$$$$
>  <COMPOUND>
CC1(O)CCCC1n1c(=O)c(C(F)F)cc2cnc(NC3CCN(S(C)(=O)=O)CC3)nc21 (centres undefined)

>  <TARGET OR SYSTEM>
843782-103-R-J1-PDC complex spheroid viability;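 note: viability read after seven days of compound exposure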

>  <ENDPOINT LABEL>
viability, T/C

>  <ENDPOINT RESULT>
3.54% [middle of 4 runs]

$$$$
